# System: GABA-A receptor; alpha-5/beta-3/gamma-2 (Homo sapiens, UniProt P18507+P28472+P31644)
# Sequence (P18507 whole entry): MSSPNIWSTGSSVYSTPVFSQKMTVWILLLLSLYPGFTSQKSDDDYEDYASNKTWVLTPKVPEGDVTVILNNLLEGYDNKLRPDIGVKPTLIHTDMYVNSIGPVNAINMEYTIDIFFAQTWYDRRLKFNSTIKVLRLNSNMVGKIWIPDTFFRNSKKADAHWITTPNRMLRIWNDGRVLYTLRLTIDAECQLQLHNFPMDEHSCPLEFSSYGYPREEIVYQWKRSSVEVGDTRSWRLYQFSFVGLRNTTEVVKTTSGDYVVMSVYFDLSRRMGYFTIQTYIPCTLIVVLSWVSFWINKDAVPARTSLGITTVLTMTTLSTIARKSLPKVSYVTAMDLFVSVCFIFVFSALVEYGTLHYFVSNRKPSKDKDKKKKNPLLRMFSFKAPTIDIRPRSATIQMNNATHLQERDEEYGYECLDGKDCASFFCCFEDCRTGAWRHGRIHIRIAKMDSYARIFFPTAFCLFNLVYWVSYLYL
# Sequence (P28472 whole entry): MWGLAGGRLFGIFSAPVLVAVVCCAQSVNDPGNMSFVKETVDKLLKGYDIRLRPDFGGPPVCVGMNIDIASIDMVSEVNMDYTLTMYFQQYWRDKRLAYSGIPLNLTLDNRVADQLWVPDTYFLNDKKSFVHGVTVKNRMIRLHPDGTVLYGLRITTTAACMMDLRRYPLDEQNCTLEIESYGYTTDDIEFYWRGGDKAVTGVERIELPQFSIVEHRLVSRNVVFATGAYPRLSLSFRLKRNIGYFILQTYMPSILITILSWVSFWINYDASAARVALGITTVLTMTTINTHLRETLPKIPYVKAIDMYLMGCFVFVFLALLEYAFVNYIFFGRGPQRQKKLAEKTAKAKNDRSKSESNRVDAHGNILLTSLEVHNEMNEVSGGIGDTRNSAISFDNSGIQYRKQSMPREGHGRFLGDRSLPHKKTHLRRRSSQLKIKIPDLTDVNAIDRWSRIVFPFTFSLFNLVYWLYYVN
# Sequence (P31644 whole entry): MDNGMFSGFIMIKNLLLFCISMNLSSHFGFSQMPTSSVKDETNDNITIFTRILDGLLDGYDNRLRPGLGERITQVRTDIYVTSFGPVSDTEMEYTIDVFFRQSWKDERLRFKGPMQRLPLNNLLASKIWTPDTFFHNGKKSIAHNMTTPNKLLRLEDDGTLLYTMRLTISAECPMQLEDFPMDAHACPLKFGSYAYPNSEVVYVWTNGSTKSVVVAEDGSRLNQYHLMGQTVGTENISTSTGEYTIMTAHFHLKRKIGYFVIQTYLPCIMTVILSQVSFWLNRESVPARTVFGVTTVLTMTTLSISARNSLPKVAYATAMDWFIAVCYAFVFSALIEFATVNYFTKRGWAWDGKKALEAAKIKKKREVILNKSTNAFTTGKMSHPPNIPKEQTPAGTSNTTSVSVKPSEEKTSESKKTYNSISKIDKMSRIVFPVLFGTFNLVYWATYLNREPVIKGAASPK
# Assay remarks: Displacement of [3H]Ro-151788 from human recombinant GABA-Aalpha5 receptor plus beta3gamma2
Measured attribute: Ki (pM)

As a guide, the following entries are already answered.
CCn1ccn2c(-c3ccc(F)c(-c4ccc(F)cc4C#N)c3)cnc2c1=O : 150
Cn1ncn2c(-c3ccc(F)c(-c4ccc(F)cc4C#N)c3)cnc2c1=O : 2300
CC(C)(O)c1cnn2c(-c3ccc(F)c(-c4c(F)cccc4C#N)c3)cnc2n1 : 900
CC(C)(O)c1ccn2c(-c3ccc(F)c(-c4cccnc4)c3)cnc2n1 : 520

[P] Cn1ccn2c(-c3ccc(F)c(-c4ccc(F)cc4C#N)c3)cnc2c1=O
[Q] Cn1ccn2c(-c3ccc(F)c(-c4c(F)cccc4C#N)c3)cnc2c1=O
[R] Cn1ccn2c(-c3ccc(F)c(-c4ccccc4C#N)c3)cnc2c1=O
[S] CCn1ncn2c(-c3ccc(F)c(-c4ccc(F)cc4C#N)c3)cnc2c1=O
[T] Cn1cnn2c(-c3ccc(F)c(-c4ccc(F)cc4C#N)c3)cnc2c1=O
rank_up(items): orders items by reported Ki in ascending numerical order. Your task in answering is to list the labels in the requested order.
R, Q, P, S, T

These measurements were taken from ChEMBL document CHEMBL1146048.
